# assay notes: gradient 5% acetonitrile 3 min, to 50% in 2 min, to 85% in 15 min, held 3 min, 100 µL/min
# condition label: column: Zorbax Extend-C18 2.1 x 50 mm; eluents: water / acetonitrile, 0.1% formic acid
assay endpoint: RP-LC retention time (s)

Below: 8 compounds and their reported RP-LC retention time.
Cc1sc(NC(=O)C(C)C)nc1-c1ccc2c(c1)NC(=O)CO2 | 750
Cc1ccsc1C(=O)N1CCC2(CC1)NCc1ccccc1-n1ccnc12 | 588
Cc1cccc(-c2nc(NCCCN3CCOCC3)c3ccccc3n2)c1 | 819
O=S(=O)(NCC1Cn2cccc2CN1Cc1ccccc1)c1ccccc1 (stereo not given) | 763
CN(C)c1ccc(NC(=O)Cn2c(=O)cc(-c3nc(C4CC4)no3)c3ccccc32)cc1 | 697
CCn1cnc(S(=O)(=O)N2CCC(C(=O)Nc3nccs3)CC2)c1 | 636
Cn1c(=O)c2ccn(CC(=O)N3CCN(c4ccccn4)CC3)c2n(C)c1=O | 546
CCOc1ccc(NC(=O)Cn2nc3c(N4CCSCC4)nccn3c2=O)cc1 | 816

[A] CCOc1ccccc1-c1noc(CN2C(=O)COc3ccccc32)n1
[B] CN(C1CCOCC1)C1CCN(C(=O)CCc2nc3ccccc3[nH]2)CC1
// task: argmin of RP-LC retention time over [ A , B ] Choose, then provide that item's label.
B
(B: 519 s, A: 963 s)

###

# assay notes: gradient 5% acetonitrile 3 min, to 50% in 2 min, to 85% in 15 min, held 3 min, 100 µL/min
# condition label: column: Zorbax Extend-C18 2.1 x 50 mm; eluents: water / acetonitrile, 0.1% formic acid
assay endpoint: RP-LC retention time (s)

CCc1noc(-c2ccc(-n3cnc(C(=O)NC4CCCC4)c3)nc2)n1 | 865
COc1cccc(-n2c(=O)c3sccc3n(Cc3nc(-c4ccccc4Cl)no3)c2=O)c1 | 969
CCCCn1cc(S(=O)(=O)Nc2ccccc2F)c2cccnc21 | 922
COc1ccccc1-c1noc(C2CCCN2C(=O)Nc2ccccc2C)n1 (stereo not given) | 827
Nc1nc(N)c2nc(-c3cccc(O)c3)cnc2n1 | 599

[a] C[C@@H](NC(=O)c1cccc(Cl)c1)C(=O)NCc1cscn1
[b] Cc1sc(C)c(S(=O)(=O)N2CCN(c3ccc(F)cc3)CC2)c1-c1cc(C(F)(F)F)on1
// task: argmin of RP-LC retention time over [ a , b ] Choose, then provide that item's label.
a

###

# assay notes: gradient 5% acetonitrile 3 min, to 50% in 2 min, to 85% in 15 min, held 3 min, 100 µL/min
# condition label: column: Zorbax Extend-C18 2.1 x 50 mm; eluents: water / acetonitrile, 0.1% formic acid
assay endpoint: RP-LC retention time (s)

Below: 3 compounds and their reported RP-LC retention time.
Cc1ccc(CNC(=O)N2CCC(n3c(-c4ccco4)nc4cccnc43)C2)cc1 (stereo not drawn) | 762
CCOC(=O)C(=O)Nc1ccc(SCc2nnc(-c3ccc4c(c3)OCO4)o2)cc1 | 866
CCCN1CCN(C(=O)c2ccc3ccnc(N4CCN(c5ccc(Cl)cc5)CC4)c3c2)CC1 | 643

[A] CC(=O)c1cccc(NC2=NS(=O)(=O)c3ccccc32)c1
[B] Cc1ccccc1Nc1c(-c2cc(Br)ccc2F)nc2ccc(Cl)cn12
Higher RP-LC retention time between A and B ? Choose, then provide that item's label.
B
(B: 1100 s, A: 744 s)

###

# assay notes: gradient 5% acetonitrile 3 min, to 50% in 2 min, to 85% in 15 min, held 3 min, 100 µL/min
# condition label: column: Zorbax Extend-C18 2.1 x 50 mm; eluents: water / acetonitrile, 0.1% formic acid
assay endpoint: RP-LC retention time (s)

Below: 5 compounds and their reported RP-LC retention time.
CN1CCn2cc(S(=O)(=O)Nc3cccc(C#N)c3)cc2C1=O | 662
CC(C)COC(=O)Nc1nc(CC(=O)Nc2ccccc2C(N)=O)cs1 | 703
COc1ccc(NC(=O)Nc2ccc3c(c2)CCN3S(=O)(=O)c2ccc(C)cc2)cc1 | 953
CCCn1cc(CCNC(=O)c2c(F)cccc2Cl)c2cccnc21 | 764
COc1ccc(-n2ccn(CC(=O)Nc3ccc(OC)c(Cl)c3)c2=O)cc1 | 734

[1] CCOC(=O)c1cnc(SCC(=O)N2CCC(C(N)=O)CC2)nc1N
[2] CCCn1ccc2sc(C)c(C(=O)NCCC(C)C)c2c1=O
Higher RP-LC retention time between 1 and 2 ? Choose, then provide that item's label.
2
(2: 901 s, 1: 602 s)

###

# assay notes: gradient 5% acetonitrile 3 min, to 50% in 2 min, to 85% in 15 min, held 3 min, 100 µL/min
# condition label: column: Zorbax Extend-C18 2.1 x 50 mm; eluents: water / acetonitrile, 0.1% formic acid
assay endpoint: RP-LC retention time (s)

Below: 4 compounds and their reported RP-LC retention time.
CCC(=O)N1CCc2cc(C(=O)NCc3ccc(C)o3)ccc21 | 757
CCOC(=O)c1c(NC(=O)CSc2nnc(-c3cccnc3)o2)sc2c1CCC2 | 932
O=C(Nc1cc(-c2ccccn2)no1)c1ccc(Cl)cc1 | 864
CCn1c(=O)c(NCc2ccc(F)cc2Cl)nc2ccncc21 | 661

[1] Cc1c(Cl)cccc1NS(=O)(=O)c1cc(-c2nc(C(C)(C)C)cs2)cs1
[2] COc1ccc(OC)c(CNC(=O)C2(CCO)CCN(c3ncccn3)C2)c1 (stereo not given)
Higher RP-LC retention time between 1 and 2 ? Choose, then provide that item's label.
1
(1: 1340 s, 2: 618 s)

[a] CCCOC(=O)c1cnc2nc(C)ccc2c1NCc1ccc(OC)cc1
[b] CCCCCNC(=O)C1CCN(c2nccnc2Sc2ccc(C)cc2)CC1
Higher RP-LC retention time between a and b ? Choose, then provide that item's label.
b

[I] COCCCNC(=O)c1ccc2nc(CCc3ccc(NC(C)=O)cc3)[nH]c2c1
[II] Cc1ccc(Sc2cncc3sc(C(N)=O)cc23)cc1
[III] CCN(C(=O)c1ccccc1OC)c1nc(-c2ccccc2)cs1
Kindly order the items shown according to RP-LC retention time, from the highest value down. Please, when replying, give the labels in the order that was requested.
III, II, I
(III: 1210 s, II: 836 s, I: 567 s)

[I] COCCn1nc2n(c1=O)CCN(C(=O)C1(c3ccccc3)CCCC1)CC2
[II] Cc1cc(C)cc(Oc2nccn3c(=O)n(CC(=O)NCc4ccco4)nc23)c1
// task: argmin of RP-LC retention time over [ I , II ] Choose, then provide that item's label.
I
(I: 730 s, II: 1210 s)

###

# assay notes: gradient 5% acetonitrile 3 min, to 50% in 2 min, to 85% in 15 min, held 3 min, 100 µL/min
# condition label: column: Zorbax Extend-C18 2.1 x 50 mm; eluents: water / acetonitrile, 0.1% formic acid
assay endpoint: RP-LC retention time (s)

COC(=O)Nc1nc(CC(=O)NCc2ccco2)cs1 | 606
COc1ccc(-c2cc3c(=O)n(CC(=O)Nc4ccc(C)c(F)c4)ccn3n2)cc1OC | 780
O=C(Nc1ccc2c(c1)OCCO2)C1(CCO)CCN(c2ncccn2)C1 (stereo not given) | 606
O=C(NC1CCN(Cc2ccccc2)CC1)C1CCCN(c2nccnc2Oc2ccccc2)C1 (stereo not given) | 680
CCCN(C)c1nccn2c(=O)n(CC(=O)Nc3ccc(C)c(F)c3)nc12 | 726

###

# assay notes: gradient 5% acetonitrile 3 min, to 50% in 2 min, to 85% in 15 min, held 3 min, 100 µL/min
# condition label: column: Zorbax Extend-C18 2.1 x 50 mm; eluents: water / acetonitrile, 0.1% formic acid
assay endpoint: RP-LC retention time (s)

CCN(CC)c1nc(-c2ccc([N+](=O)[O-])cc2)nc2ccccc12 | 771
O=c1c2c(nc(SCc3ccccn3)n1CCc1ccccc1)CCS2 | 657
Cc1cc(-c2nnc(C3CC3)o2)c(C)n1CC(=O)NCc1ccc(F)cc1Cl | 840
Cc1cccc(NC(=O)C2CN(C(=O)c3cc(C)on3)C2)n1 | 601
COc1ccc(-c2nc(C)cc(C)c2CNS(=O)(=O)c2cccc(F)c2)cc1 | 657

###

# assay notes: gradient 5% acetonitrile 3 min, to 50% in 2 min, to 85% in 15 min, held 3 min, 100 µL/min
# condition label: column: Zorbax Extend-C18 2.1 x 50 mm; eluents: water / acetonitrile, 0.1% formic acid
assay endpoint: RP-LC retention time (s)

Below: 10 compounds and their reported RP-LC retention time.
O=C(Nc1ccc2c(c1)OCCO2)C1CCN(S(=O)(=O)c2ccc3[nH]c(=O)ccc3c2)CC1 | 691
Cc1ccc(Cl)cc1NC(=O)N1CCC(n2cnnc2C2CC2)C1 (centres undefined) | 653
O=C(CSc1ccc(N2CCCC(C(=O)NC3CC3)C2)nn1)NCc1ccccc1 (centres undefined) | 603
Cc1ccc(N2C=C(C(=O)N3CCCC3)S(=O)(=O)c3ccccc32)cc1 | 802
Cc1cc(F)cc2c(=O)c3c([nH]c12)CCN(CC(=O)Nc1ccccc1)C3 | 616
Cc1ccccc1-c1nc(C)c(C(=O)NC(C)C)s1 | 903
Cc1ccc(OCC(=O)NC[C@@]23CCC[C@H]2N(C)C(=O)CC3)cc1 | 674
CCOC(=O)COc1cc(-c2ccc(F)cc2)nc2ccc(NC(=O)c3ccco3)cc12 | 798
CC(C)c1ccc(NC(=O)C(=O)NC2CC(C)(C)NC(C)(C)C2)cc1 | 712
Cc1oc(C(C)C)nc1C(=O)Nc1ccc(Cl)cc1 | 1150

[P] Cc1ccc(CNC(=O)Cc2csc3nc(-c4ccc(C)c(C)c4)cn23)cc1
[Q] O=C(NC1CCCCCC1)c1ccc2c(c1)ncn2CCN1CCCC1
// task: argmin of RP-LC retention time over [ P , Q ] Choose, then provide that item's label.
Q

[A] Cc1noc(CNC(=O)COc2cccc3c2OC(C)(C)C3)n1
[B] CCCn1cc(C(=O)NCC(=O)OCC)c(S(=O)(=O)N2CCN(c3cccc(Cl)c3)CC2)n1
Higher RP-LC retention time between A and B ? Choose, then provide that item's label.
B
(B: 1060 s, A: 724 s)

[P] CCn1c(=O)sc2cc(S(=O)(=O)N3CCC(C(=O)Nc4ccc(C(C)C)cc4)CC3)ccc21
[Q] Cn1c(N2CCC(C(=O)NCCCN3CCC(Cc4ccccc4)CC3)CC2)cc(=O)n(C)c1=O
// task: argmin of RP-LC retention time over [ P , Q ] Choose, then provide that item's label.
Q
(Q: 631 s, P: 985 s)
